Numbers sourced from paper PMC3960879.

measured_target: F17aG receptor-binding domain (Escherichia coli)
Construct: variants of the lectin domains with oligolysine (4Lys) tails have been constructed; made in house; host or cells: E. coli (periplasm)
Sequence (Q99003 23-199): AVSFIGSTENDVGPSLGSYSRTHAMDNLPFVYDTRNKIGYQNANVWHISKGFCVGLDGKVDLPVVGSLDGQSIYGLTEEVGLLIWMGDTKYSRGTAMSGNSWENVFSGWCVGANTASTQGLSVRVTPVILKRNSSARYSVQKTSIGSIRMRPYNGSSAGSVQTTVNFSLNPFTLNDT
procedure_summary: biochemical
stated_conditions: dissociation constant Kd, F17aG, SPR steady state, 25 °C, pH 7.4; good fit for at least three related experiments
pKd: −log10 of the molar value.

[
  {
    "compound": "CC(=O)N[C@@H]1[C@@H](O)[C@H](O)[C@@H](CO)O[C@H]1O [GlcNAc, N-acetylglucosamine]",
    "pKd": 2.92
  }
]

---

measured_target: F17fG receptor-binding domain (Escherichia coli)
Sequence (Q9RH91 23-198): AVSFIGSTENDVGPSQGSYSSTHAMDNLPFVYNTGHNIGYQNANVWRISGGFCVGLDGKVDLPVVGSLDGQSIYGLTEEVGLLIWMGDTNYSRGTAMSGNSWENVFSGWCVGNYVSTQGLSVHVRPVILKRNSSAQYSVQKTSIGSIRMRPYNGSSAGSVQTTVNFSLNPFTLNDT
procedure_summary: Surface plasmon resonance steady-state affinity, immobilized F17fG
stated_conditions: SPR steady state, 25 °C, pH 7.4; read-out: Affinity range (Kd class), F17fG
Quick reference: Kd of the listed items.
readout_type: Kd

[
  {
    "compound": "CC(=O)N[C@H]1C(O)O[C@H](CO)[C@@H](O[C@@H]2O[C@H](CO)[C@@H](O)[C@H](O)[C@H]2N)[C@@H]1O[C@H](C)C(=O)O (stereo partly drawn)",
    "observed": "> 100 mM"
  },
  {
    "compound": "CO[C@@H]1O[C@H](CO)[C@H](O)[C@H](O[C@@H]2O[C@H](CO)[C@@H](O)[C@H](O)[C@H]2NC(C)=O)[C@H]1O",
    "observed": "0.1 to 1 mM"
  },
  {
    "compound": "CC(=O)N[C@H]1C(O)O[C@H](CO)[C@@H](O)[C@@H]1OS(=O)(=O)O (stereo partly drawn)",
    "observed": "> 100 mM"
  }
]
